# Test system: MILI (PIWIL2) piRISC loaded with L1MC piRNA (26 nt);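 also: 1 nM active piRISC with 0.1 nM target library at 33 °C single turnover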
# protocolSummary: pre-steady-state target cleavage rate (min^-1); guide: L1MC piRNA 5'p-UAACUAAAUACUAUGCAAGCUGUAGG; MIWI and MILI are mouse PIWI proteins and EfPiwi is from a freshwater sponge; tags in brackets are library labels; higher = faster piRNA-guided slicing of the target
# conditionLabel: auxiliary factor: none (no GTSF1)
parameter: pre-steady-state target cleavage rate
# print the numeric value only

Known results for sequences:
1) UCCUGGUUCAGCUUGCAUAGUAAUUAGUUA ... 0.00723
2) UCCUGGUUCAGCUUGCAUAGUAUUAAGUUA ... 0.00855

The sequence listed as "UCCUGGAUCAGCUUCCAAAGUAUUUAGUUA" shows pre-steady-state target cleavage rate equal to 0.00341

Kindly note the recorded pre-steady-state target cleavage rate for "UCCUGGAUGUGCUUGCUUUGUAUUUAGUUA" , which is 0.00696

Reported pre-steady-state target cleavage rate ( "UCCUGGUACAGCUUGCAAUGUAUUUAGUUA" ) = 0.0121

pre-steady-state target cleavage rate reading for "UCCUGGAACAGCUUGCUUACUAUUUAGUUA" : 0.0029

The recorded pre-steady-state target cleavage rate for "UCCUGCUACAGCUGCAUAGUAUUUAGUUA" is 0.00665

Measured pre-steady-state target cleavage rate, "UCCUGGAUGUCGUUGCAUAGUAUUUUAGUUA" : 0.00632

Sure, the documented pre-steady-state target cleavage rate for "UCCUGGUACAGCUUGGCAUAGUAUUUAGUUA" is 0.00473

get_value(item= "UCCUGGAUGUCGUAGCAUAGUAUUAAGUUA" , readout=pre-steady-state target cleavage rate) returns 0.00246

So for "UCCUGCUACAGGUUGCAUAGUUUUUAGUUA" , the logged pre-steady-state target cleavage rate turned out to be 0.0063

// pre-steady-state target cleavage rate lookup, sequence = "UCCUGGAACACCUUGCAUUGUAUUUAGUUA" , result: 0.00474

Entry under test: "UCCUGGAUGUGCUUGCAUAGUACUUUAGUUA" . Its pre-steady-state target cleavage rate was 0.00627

Input "UCCUCCUACAGCAACCAUAGUAUUUAGUUA" . Output pre-steady-state target cleavage rate: 0.00404

pre-steady-state target cleavage rate in this record for "UCCUGGAUGAGCUUGGAAAGUAUUUAGUUA" : 0.00571

Just so you know, measured pre-steady-state target cleavage rate for "UCCUGCUACAGCUUGCAUAGUAUUAGUUA" came out at 0.0027

Item: "UCCUGGUAGAGGUUGCAUAGUAUUUAGUUA" | pre-steady-state target cleavage rate: 0.0103

Entry under test: "UCCUGGAUGUCGUUGCAUAGUAUGUUAGUUA" . Its pre-steady-state target cleavage rate was 0.00861

Lab note: measured pre-steady-state target cleavage rate of "UCCUGGAACAGCUUGCAUAGUAUUAGUUA" was 0.0037

pre-steady-state target cleavage rate in this record for UCCUGGUACAGCUUGCAUAGUAUUUAGUUG [g2:g24:cont:t1G] : 0.00995

Data provenance: the supplement of paper PMC10338343
